molecular target: human secretin receptor (hSCTR) (human, UniProt P47872 23-440); assay: cell-based or functional assay
Sequence (P47872 23-440): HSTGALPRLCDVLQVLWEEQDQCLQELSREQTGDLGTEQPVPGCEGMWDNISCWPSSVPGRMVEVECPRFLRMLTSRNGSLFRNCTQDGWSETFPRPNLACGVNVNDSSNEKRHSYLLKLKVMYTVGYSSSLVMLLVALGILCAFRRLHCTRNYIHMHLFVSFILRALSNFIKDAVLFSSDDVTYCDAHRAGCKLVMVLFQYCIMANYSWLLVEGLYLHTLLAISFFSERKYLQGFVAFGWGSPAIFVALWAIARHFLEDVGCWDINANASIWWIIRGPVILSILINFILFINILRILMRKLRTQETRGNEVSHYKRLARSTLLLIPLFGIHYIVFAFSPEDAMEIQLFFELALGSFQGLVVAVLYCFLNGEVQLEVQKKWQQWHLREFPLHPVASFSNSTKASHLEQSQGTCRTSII
Numbered stars: 1 amine (or outer) side, 2 acyl side, 3 side chain; on linkers, the order of the positions; unused ones are H or OH. Square brackets hold non-standard residues; d marks the D form. Side chains are listed from the residue outwards. Ends that are not written are not given here. * marks the point of attachment. C20 diacid = O=C(O)CCCCCCCCCCCCCCCCCCC(=O)*; γGlu = O=C(O)[C@H](CCC(=O)[*:2])N[*:1]; AEEA = NCCOCCOCC(=O)O; Aib = CC(C)(N)C(=O)O
endpoint label: pEC50 hSCTR

H[Aib]EGTFTSDISYLK([AEEA-AEEA-γGlu-C20 diacid])EEA[Aib]LQRFLEHLV-NH2 (also: K14 lipid also given as C18DA[γE][OEG][OEG]-) [SEQ ID NO: 114]
7.4 -log M

GET /values?readout=pEC50 hSCTR&item= H[Aib]EGTFTSDVSYLK([AEEA-AEEA-γGlu-C20 diacid])EFAAQQRFLEHLV-NH2 [SEQ ID NO: 76] 5 -log M

GET /values?readout=pEC50 hSCTR&item= H[Aib]EGTFTSDVSVLKEEA[Aib]LQRFLEHLV-NH2 (not fully specified (residue 14)) [SEQ ID NO: 138] 7.5 -log M
